Reference source for all entries: patent US20230277625A1

- target: T1, Human IL-18Rα ectodomain (amino acids 19-329), biotinylated (human, UniProt Q13478 19-329, biotin on the AviTag (BirA ligase))
- T1 construct: range 19-329; Secreted from insect cells (gp67 signal peptide removed); also called hIL-18Rα; hIL18Rα
- T1 sequence: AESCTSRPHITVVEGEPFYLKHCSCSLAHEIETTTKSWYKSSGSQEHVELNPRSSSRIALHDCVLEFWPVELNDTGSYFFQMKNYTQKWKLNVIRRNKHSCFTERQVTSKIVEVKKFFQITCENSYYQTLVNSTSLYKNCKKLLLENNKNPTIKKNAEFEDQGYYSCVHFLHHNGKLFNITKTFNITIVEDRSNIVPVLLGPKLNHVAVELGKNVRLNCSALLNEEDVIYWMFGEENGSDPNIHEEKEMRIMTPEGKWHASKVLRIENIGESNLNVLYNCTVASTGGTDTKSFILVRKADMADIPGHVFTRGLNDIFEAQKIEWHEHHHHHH
- protocol.details: SPR (Biacore T100), hIL-18Rα as surface ligand; Exp 1
binders and their reported Kd
Lab book: enter the figure in nM, no units written.

Some binders with known Kd results, for comparison:
SEQ ID NO: 89 (second generation human DR-IL-18 variant 6-12) (ligand, Engineered variant; recombinant soluble analyte in SPR and cell assays) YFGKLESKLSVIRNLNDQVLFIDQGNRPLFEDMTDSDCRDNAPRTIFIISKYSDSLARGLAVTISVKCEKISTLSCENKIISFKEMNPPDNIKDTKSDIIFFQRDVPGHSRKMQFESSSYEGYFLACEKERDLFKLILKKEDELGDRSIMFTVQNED :: 2.24
SEQ ID NO: 87 (second generation human DR-IL-18 variant 6-31) (ligand, Engineered variant; recombinant soluble analyte in SPR and cell assays) YFGKLESKLSVIRNLNDQVLFIDQGNRPLFEDMTDSDCRDNAPRTIFIISKYGDSGARGLAVTISVKCEKISTLSCENKIISFKEMNPPDNIKDTKSDIIFFERDVPGHSGKVQFESSSYEGYFLACEKERDLFKLILKKEDELGDRSIMFTVQNED :: 19.4
SEQ ID NO: 91 (second generation human DR-IL-18 variant 6-29) (ligand, Engineered variant; recombinant soluble analyte in SPR and cell assays) YFGKLESKLSVIRNLNDQVLFIDQGNRPLFEDMTDSDCRDNAPRTIFIISKYSDSRARGLAVTISVKCEKISTLSCENKIISFKEMNPPDNIKDTKSDIIFFQRNVPGHGRKMQFESSSYEGYFLACEKERDLFKLILKKEDELGDRSIMFTVQNED :: 2.65

Task: Answer with reported Kd of SEQ ID NO: 90 (second generation human DR-IL-18 variant 6-27) (ligand, Engineered variant; recombinant soluble analyte in SPR and cell assays) YFGKLESKLSVIRNLNDQVLFIDQGNRPLFEDMTDSDCRDNAPRTIFIISKYSDSRARGLAVTISVKCEKISTLSCENKIISFKEMNPPDNIKDTKSDIIFFARSVPGHGRKTQFESSSYEGYFLACEKERDLFKLILKKEDELGDRSIMFTVQNED
Result: 3.48
